The reported measurements were obtained from patent US10550097B2.

Can you tell me Dermal collagen for the items I'm about to list?
Test system: Human skin from abdominal plastic surgery
Assay: Ex vivo: total dermal collagen after cortisone and cortisone/inhibitor treatment
Type: cell-based
Conditions: 200 μM in DMSO, cortisone/inhibitor treatment, topical daily, day 6; untreated set to 100%
One number for each entry, in %.

Cc1ccc(-c2cccc(C(=O)N3CCCCCC3)c2)cn1 ... 96
Cc1ccc(-c2cccc(C(=O)N3CCCCCC3)c2)cc1F ... 86
Cc1ccc(-c2cccc(C(=O)N3CCC(C)CC3)c2)cn1 ... 114

Query: For the compound shown here, O=C(c1cccc(-c2ccccc2)c1)N1CCCCCC1 , give the reported Dermal collagen.
Result: 93

* * *

Test: Solubility in cosmetic oils from saturated mixtures (UPLC)
Format: physicochemical
Details: DUB DIS (diisopropyl sebacate), 7 days at room temperature (22° C.)
Can you tell me Solubility in cosmetic oils: DUB DIS for the items I'm about to list?
Numbers only, in %.

Before answering, review these 2 worked examples.
CC1CCN(C(=O)c2cccc(-c3cccc(C(N)=O)c3)c2)CC1 ... 2.4
Cc1ccc(-c2cccc(C(=O)N3CC(C)OC(C)C3)c2)cc1F (centres unmarked) ... 4.3

# next molecule below
Query: For the molecule shown here, Cc1ccc(-c2cccc(C(=O)N3CCCCCC3)c2)cc1 , give the reported Solubility in cosmetic oils: DUB DIS.
Result: 2.6

* * *

Tested on: Human skin from abdominal plastic surgery
Assay: Ex vivo: total dermal collagen after cortisone and cortisone/inhibitor treatment
Assay type: cell-based
Settings: 200 μM in DMSO, day 6
Reported Property: Increase versus cortisone (#2)

Cc1ccc(-c2cccc(C(=O)N3CCCCCC3)c2)cc1F ... +12%
O=C(c1cccc(-c2ccccc2)c1)N1CCCCCC1 ... +21%
Cc1ccc(-c2cccc(C(=O)N3CCC(C)CC3)c2)cn1 ... +48%

# next compound below
Query: For the compound shown here, Cc1ccc(-c2cccc(C(=O)N3CCCCCC3)c2)cn1 , give the reported Increase versus cortisone (#2).
Result: +25%

* * *

Can you tell me Solubility in cosmetic oils: Finsolv EB for the items I'm about to list?
Test: Solubility in cosmetic oils from saturated mixtures (UPLC)
Format: physicochemical
Details: Finsolv EB (ethylhexyl benzoate), 7 days at room temperature (22° C.)
Give bare numbers, in %.

Cc1ccc(-c2cccc(C(=O)N3CCCCCC3)c2)cc1 ... 4.0
Cc1ccc(-c2cccc(C(=O)N3CC(C)OC(C)C3)c2)cc1F (centres unmarked) ... 2.6

# next molecule below
Query: For the molecule shown here, CC1CCN(C(=O)c2cccc(-c3cccc(C(N)=O)c3)c2)CC1 , give the reported Solubility in cosmetic oils: Finsolv EB.
Result: 3.4

* * *

Can you tell me remaining activity at 0.01 µM for the items I'm about to list?
Target: 11β-HSD1 (Homo sapiens)
Sequence (P28845 whole entry): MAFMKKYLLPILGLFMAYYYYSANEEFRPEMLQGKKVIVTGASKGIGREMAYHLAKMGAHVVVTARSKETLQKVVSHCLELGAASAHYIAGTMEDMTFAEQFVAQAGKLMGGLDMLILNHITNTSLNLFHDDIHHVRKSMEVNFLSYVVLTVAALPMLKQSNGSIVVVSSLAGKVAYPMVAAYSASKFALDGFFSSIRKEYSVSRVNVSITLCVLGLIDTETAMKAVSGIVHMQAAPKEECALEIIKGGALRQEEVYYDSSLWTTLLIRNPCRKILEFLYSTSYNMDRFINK
Assay: Human keratinocytes assay: 11β-HSD1 activity (cortisone to cortisol)
Format: cell-based
Conditions: 48 h
Numbers only, in %.

// each compound listed below needs its remaining activity at 0.01 µM
1. Cc1ccc(-c2cccc(C(=O)N3CCCCCC3)c2)cc1F
2. Cc1ccc(-c2cccc(C(=O)N3CCCCCC3)c2)cc1
3. Cc1ccc(-c2cccc(C(=O)N3CCOC(C)(C)C3)c2)cc1F
4. CC1CCN(C(=O)c2cccc(-c3ccccc3Cl)c2)CC1
5. O=C(c1cccc(-c2ccccc2)c1)N1CCCCCC1

Result:
1. 22
2. 23
3. 11
4. 50
5. 52
